# SYSTEM NAME: Recombinant human KIF18A (1-467His-tagged) protein (Homo sapiens, UniProt Q8NI77)
# Construct: Recombinant human KIF18A (1-467His-tagged) protein; His
# Sequence (Q8NI77 1-467): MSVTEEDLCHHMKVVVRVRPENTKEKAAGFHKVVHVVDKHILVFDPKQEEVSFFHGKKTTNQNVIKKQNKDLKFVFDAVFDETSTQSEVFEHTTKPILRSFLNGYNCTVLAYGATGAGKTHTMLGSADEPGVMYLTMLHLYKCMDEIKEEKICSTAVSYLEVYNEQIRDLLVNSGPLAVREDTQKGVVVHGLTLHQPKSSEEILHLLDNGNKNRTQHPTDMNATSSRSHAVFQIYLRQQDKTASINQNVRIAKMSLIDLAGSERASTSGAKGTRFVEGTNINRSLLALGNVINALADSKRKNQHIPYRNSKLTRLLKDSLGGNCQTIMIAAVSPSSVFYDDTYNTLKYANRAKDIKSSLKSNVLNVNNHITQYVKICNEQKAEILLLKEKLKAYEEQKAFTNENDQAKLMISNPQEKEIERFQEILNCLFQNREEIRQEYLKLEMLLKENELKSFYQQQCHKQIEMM
# Sequence (P02550 whole entry partner): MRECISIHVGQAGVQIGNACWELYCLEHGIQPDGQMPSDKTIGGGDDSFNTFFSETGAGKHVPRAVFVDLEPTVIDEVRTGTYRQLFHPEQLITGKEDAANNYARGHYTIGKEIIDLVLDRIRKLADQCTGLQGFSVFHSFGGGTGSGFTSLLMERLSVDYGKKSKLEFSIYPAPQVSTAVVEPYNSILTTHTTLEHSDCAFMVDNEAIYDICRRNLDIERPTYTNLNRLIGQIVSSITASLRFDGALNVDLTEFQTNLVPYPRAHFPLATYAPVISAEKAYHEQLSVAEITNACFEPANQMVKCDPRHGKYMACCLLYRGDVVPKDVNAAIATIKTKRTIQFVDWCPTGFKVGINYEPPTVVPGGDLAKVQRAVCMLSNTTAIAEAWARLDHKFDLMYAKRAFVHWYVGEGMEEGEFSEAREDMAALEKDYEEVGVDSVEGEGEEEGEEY
# Sequence (P02554 whole entry partner): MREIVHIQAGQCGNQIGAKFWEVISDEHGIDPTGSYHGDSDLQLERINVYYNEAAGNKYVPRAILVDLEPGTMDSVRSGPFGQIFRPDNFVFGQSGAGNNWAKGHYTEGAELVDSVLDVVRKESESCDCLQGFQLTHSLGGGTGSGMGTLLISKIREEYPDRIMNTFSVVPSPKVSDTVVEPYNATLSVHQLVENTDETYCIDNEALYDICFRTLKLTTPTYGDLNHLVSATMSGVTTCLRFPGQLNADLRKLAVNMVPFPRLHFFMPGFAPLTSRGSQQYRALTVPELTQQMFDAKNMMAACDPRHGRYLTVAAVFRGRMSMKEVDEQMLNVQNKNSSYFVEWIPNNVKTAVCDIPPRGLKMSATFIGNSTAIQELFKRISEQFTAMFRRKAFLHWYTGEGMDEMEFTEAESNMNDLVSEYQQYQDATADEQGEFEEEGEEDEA
# TEST PROTOCOL: KIF18A enzyme assay (microtubule-stimulated ATPase activity, ADP-Glo)
# MEASUREMENT CONDITIONS: 30 nM KIF18A, 75 μM ATP, 30 μg/mL pig microtubules; read-out: Inhibitory activity against KIF18A IC50
pIC50: −log10 of the molar value.
PROPERTY LABEL: pIC50

Give the measured pIC50 of O=C(Nc1cnc(S(=O)(=O)NCCO)cc1N1CCC2(CC1)CC2)c1ccc([N+](=O)[O-])c(N2CC(F)(F)C2)c1 [Compound 212] .
6.30 to 7.00

Give the measured pIC50 of O=C(Nc1ccc(NS(=O)(=O)CCO)cc1N1CCC2(CC1)CC2)c1ccc([N+](=O)[O-])c(N2CCC3(CC3)C2)n1 [Compound 166] .
≥ 7.00

Give the measured pIC50 of CC1(F)CCN(c2cc(C(=O)Nc3ccc(S(=O)(=O)NCCO)cc3N3CCC4(CC3)CC4)ccc2[N+](=O)[O-])C1 (stereo not shown) [Compound 56] .
6.30 to 7.00

New cases:
Give the measured pIC50 of O=C(Nc1ccc(NS(=O)(=O)CCO)cc1N1CCC2(CC1)CC2)c1ccc(OCF)c(OC2CCC2)n1 [Compound 551] .
≥ 7.00

---

# SYSTEM NAME: Recombinant human KIF18A (1-467His-tagged) protein (Homo sapiens)
# Construct: Recombinant human KIF18A (1-467His-tagged) protein; His
# TEST PROTOCOL: KIF18A enzyme assay (microtubule-stimulated ATPase activity, ADP-Glo)
# MEASUREMENT CONDITIONS: 30 nM KIF18A, 75 μM ATP, 30 μg/mL pig microtubules; read-out: Inhibitory activity against KIF18A IC50
# Procedure: In Vitro Assay of the Compounds of the Present Invention for Inhibiting Enzymatic Activity of KIF18A KIF18A enzyme assay: The enzymatic activity of KIF18A after treatment with the compounds was measured by an assay of microtubule-stimulated ATPase activity. ADP generated from the ATPase reaction was measured in this assay. […] Luminescence was read using a microplate reader and compared with that of the DMSO group, and then the inhibition percentages and IC50 values of the compounds were calculated.
PROPERTY LABEL: IC50

Form: Entry = CC(C)(CO)Nc1cc(C(=O)Nc2cnc(NS(=O)(=O)CCO)cc2N2CCC3(CC2)CC3)ccc1[N+](=O)[O-] [Compound 203] | System = Recombinant human KIF18A (1-467His-tagged) protein (Homo sapiens) | IC50 = ____
≤ 100 nM

For every item below, please supply its IC50.
1. C[C@H]1CN(c2cc(NC(=O)c3ccc(NS(=O)(=O)CCO)cc3N3CCC4(CC3)CC4)ccc2[N+](=O)[O-])CCO1 [Compound 3]
2. C[C@H]1CN(c2cc(C(=O)Nc3ccc(NS(=O)(=O)CCO)cc3N3CCC4(CC3)CC4)ccc2[N+](=O)[O-])CCO1 [Compound 35]
3. C[C@H]1CN(c2nc(C(=O)Nc3ccc(S(=O)(=O)NCCO)cc3N3CCC4(CC3)CC4)ccc2[N+](=O)[O-])CCO1 [Compound 179]

1. ≤ 100 nM
2. 100 to 500 nM
3. 100 to 500 nM
